All values here come from patent US20230000842A1.

- Target of assay: CLK3 kinase (Homo sapiens)
- Sequence (P49761 whole entry): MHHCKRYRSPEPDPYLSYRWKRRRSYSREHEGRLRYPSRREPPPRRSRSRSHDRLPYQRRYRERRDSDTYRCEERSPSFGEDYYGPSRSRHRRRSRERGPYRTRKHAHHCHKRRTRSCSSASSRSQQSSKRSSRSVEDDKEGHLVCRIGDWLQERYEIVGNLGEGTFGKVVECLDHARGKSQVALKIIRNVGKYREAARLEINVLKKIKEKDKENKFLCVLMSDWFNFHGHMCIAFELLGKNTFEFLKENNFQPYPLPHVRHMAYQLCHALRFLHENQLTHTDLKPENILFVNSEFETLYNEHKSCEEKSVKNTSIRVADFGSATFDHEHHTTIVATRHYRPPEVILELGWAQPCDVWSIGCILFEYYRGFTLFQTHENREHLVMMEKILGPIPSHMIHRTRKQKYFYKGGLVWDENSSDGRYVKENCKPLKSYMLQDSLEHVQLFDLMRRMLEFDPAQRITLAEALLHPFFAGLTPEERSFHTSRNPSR
- Measurement description: CLK3 kinase activity assay (Z-lyte FRET);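 further: kinase activity read as coumarin/fluorescein emission ratio by FRET, unphosphorylated peptide as 0% and phosphorylated peptide as 100% control, values from non-linear regression of dose-response curves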
- Measurement parameters: Z-lyte Ser/Thr 18 peptide, 156 μM ATP, 1 h at room temperature
Quantity measured: EC50 (µM)

Past entries and their recorded results:
Query: Which value of EC50 has been reported for Cc1cncc(NC(=O)c2n[nH]c3ccc(-c4cncc(CN5CCCCC5)c4)cc23)c1 in the records?
Response: 0.352

Query: And what about the compound FC1(F)CCN(Cc2cncc(-c3cnc4[nH]nc(-c5nc6c(-c7ccoc7)nccc6[nH]5)c4c3)c2)C1 ?
Response: 0.034

Query: And what about the compound CC(C)N1CCC(c2nc(C(=O)Nc3cc4cc(-c5cnn(C)c5)ccc4cn3)co2)CC1 ?
Response: 0.026

Query: And what about the compound Cc1ccc(-c2cncc3[nH]c(-c4n[nH]c5cnc(-c6cncc(N)c6)cc45)nc23)s1 ?
Response: 0.203

1. Cc1ncc(NC(=O)c2n[nH]c3ccc(-c4cnc(C)n4C)cc23)s1
2. CN(C)Cc1cncc(NC(=O)c2n[nH]c3ccc(-c4cncc(CN5CCCC5)c4)cc23)c1
3. O=C(Cc1ccccc1)Nc1cncc(-c2ccc3[nH]nc(-c4cc5cnccc5[nH]4)c3c2)c1
4. Cc1n[nH]c2ccc(-c3cncc(N4CCC[C@H](N)C4)n3)cc12
5. O=C(Nc1c[nH]nc1C(=O)Nc1cncc(-c2cccc(F)c2)c1)c1cncc(OC2CCNCC2)c1
Query: List these items ordered by EC50, big to small. Use the labels to give the requested order.
Response: 4, 5, 3, 1, 2

P. CC(C)CC(=O)Nc1cncc(-c2ccc3[nH]nc(-c4nc5c(-c6ccc(F)cc6)cncc5[nH]4)c3c2)c1
Q. CCCCC(=O)Nc1cncc(-c2ccc3[nH]nc(-c4cc5c(-c6ccoc6)cncc5[nH]4)c3c2)c1
Query: Which entry shows the lesser value of EC50 here, P or Q ? Please respond with the label that marks your chosen entry.
Response: Q
(Q: 0.042 µM, P: 0.075 µM)

P. CC#CC(=O)Nc1cc2cc(-c3cnn(C)c3)ccc2cn1
Q. O=C(Nc1cccnc1)c1n[nH]c2ccc(-c3cncc(CN4CC(CO)(CO)C4)c3)cc12
R. CC(C)n1cc(C(=O)Nc2cc3cc(-c4cncn4C)ccc3cn2)cn1
S. Cc1ccncc1-c1cnc2[nH]nc(-c3nc4c(-c5cc(F)cc(CNS(C)(=O)=O)c5)nccc4[nH]3)c2c1
Query: List these items ordered by EC50, big to small. Use the labels to give the requested order.
Response: P, Q, S, R
